Listed variants paired with reported protein stability index
B1: KCTD10 (parent)
chain: SSKEEQKLIATSNKPAVKLLYNRS

Variants of: B1
Test: protein stability index of a GFP-peptide fusion (GPS, HEK-293T) (PSI 1-6); higher = more stable;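 further: lentivirally expressed fusions sorted by FACS into six bins by GFP to DsRed ratio, PSI derived from sequencing read proportions per bin multiplied by bin number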
Conditions: c terminus: a fixed tail appended
Please reply with the number alone, leaving off any unit.

Examples with answers:
SSKEEQKLIATSNKPAVKLLYNLS [R23L]    3.03
SSKEEQKLIATSPKPAVKLLYNRS [N13P]    4.12
SRKEEQKLIATSNKPAVKLLYNRS [S2R]    4.07
SSKEEQKLIATSNKPAVKLVYNRS [L20V]    4.09
SSKEEQKLIATSNKPAVKLLENRS [Y21E]    4.25
SSKEEQKLIATSNKPAVKLLANRS [Y21A]    4.33
SSKEEQKQIATSNKPAVKLLYNRS [L8Q]    4.6
SSKEEQKLCATSNKPAVKLLYNRS [I9C]    3.91
SSKEEQKLIATSNKPAVKLLKNRS [Y21K]    4.68
SSKEEQKLIATSNKPAVKLLYNES [R23E]    4.63

Now look at this one.
Exercise: Provide protein stability index value for the following variant: SSKKEQKLIATSNKPAVKLLYNRS [E4K]
Key: 3.69

Hello, the source for this data is the supplement of paper PMC10567573, in case you need it.
